# assay-system: T1, GFP-9S library array, motif 4 ND N98V;D124I (synthetic construct, N98V;D124I)
# T1 chain: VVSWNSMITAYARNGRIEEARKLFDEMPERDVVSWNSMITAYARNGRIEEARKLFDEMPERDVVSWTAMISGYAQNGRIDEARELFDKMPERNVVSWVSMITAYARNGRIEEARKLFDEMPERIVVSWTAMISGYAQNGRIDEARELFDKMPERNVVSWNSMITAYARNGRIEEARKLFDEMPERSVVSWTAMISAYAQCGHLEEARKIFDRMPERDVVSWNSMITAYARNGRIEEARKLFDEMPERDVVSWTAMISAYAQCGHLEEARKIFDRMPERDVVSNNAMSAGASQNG
# method-description: high-throughput RNA pulldown from lysate on Ni-NTA beads; HRP: 50 mM Tris pH 8, 150 mM NaCl, 1 mM beta-mercaptoethanol, 50 ug/ml BSA, 3 ug/ml yeast RNA, 0.5% heparin; ITC and FP: Tris pH 8, 200 mM KCl, 5% glycerol; MST: 50 mM Tris pH 8, 200 mM NaCl, 1 mM DTT, BSA, heparin, 0.05% Tween 20
# conditions-used: tags: N-terminal His-eGFP; label: 5' Cy5
Reported Kd values for the following binders.
Provide the reading as a plain figure in nM.

> print(dat)
                             binder  property.name  reported.result
1  AUUAGACGUGA (ssRNA) [Cy5-rpoA-G]             Kd              163

Let us move to another entry and its Kd.
Input line: Please look up its Kd: AUUACACGUGA (ssRNA) [Cy5-rpoA]
Output line: 121
